# TESTED_TARGET: Cytochrome P450 2D6 (Homo sapiens, UniProt P10635)
# Sequence (P10635 whole entry): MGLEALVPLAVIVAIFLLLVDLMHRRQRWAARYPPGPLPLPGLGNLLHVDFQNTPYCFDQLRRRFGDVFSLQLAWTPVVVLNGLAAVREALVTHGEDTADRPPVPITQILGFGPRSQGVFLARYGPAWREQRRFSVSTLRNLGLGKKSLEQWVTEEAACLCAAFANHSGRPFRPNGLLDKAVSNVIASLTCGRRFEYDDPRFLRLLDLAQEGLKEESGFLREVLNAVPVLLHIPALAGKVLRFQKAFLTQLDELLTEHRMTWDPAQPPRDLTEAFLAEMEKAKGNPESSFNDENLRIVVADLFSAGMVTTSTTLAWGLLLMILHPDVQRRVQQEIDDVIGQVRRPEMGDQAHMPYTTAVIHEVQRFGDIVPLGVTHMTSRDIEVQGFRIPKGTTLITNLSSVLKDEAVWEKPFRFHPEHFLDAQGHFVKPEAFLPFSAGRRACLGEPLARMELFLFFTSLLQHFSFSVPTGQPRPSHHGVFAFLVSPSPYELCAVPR
# PROTOCOL_DESCRIPTION: Inhibition of CYP2D6 in human liver microsomes using dextromethorphan as substrate after 5 to 60 mins by LC-MS/MS analysis
# Assay type: ADME, Microsome
PROPERTY_MEASURED: IC50
Could you write the number and then its unit?

Query block: Return the recorded IC50 value; entry: Cn1cc(-c2ccc3c(c2)CCN3C(=O)Cc2cccc(C(F)(F)F)c2)c2c(N)ncnc21
Result block: 23 µM

====

Eukaryotic translation initiation factor 2-alpha kinase 1 (Homo sapiens, UniProt Q9BQI3): recorded pIC50 for assorted molecules
Sequence (Q9BQI3 whole entry): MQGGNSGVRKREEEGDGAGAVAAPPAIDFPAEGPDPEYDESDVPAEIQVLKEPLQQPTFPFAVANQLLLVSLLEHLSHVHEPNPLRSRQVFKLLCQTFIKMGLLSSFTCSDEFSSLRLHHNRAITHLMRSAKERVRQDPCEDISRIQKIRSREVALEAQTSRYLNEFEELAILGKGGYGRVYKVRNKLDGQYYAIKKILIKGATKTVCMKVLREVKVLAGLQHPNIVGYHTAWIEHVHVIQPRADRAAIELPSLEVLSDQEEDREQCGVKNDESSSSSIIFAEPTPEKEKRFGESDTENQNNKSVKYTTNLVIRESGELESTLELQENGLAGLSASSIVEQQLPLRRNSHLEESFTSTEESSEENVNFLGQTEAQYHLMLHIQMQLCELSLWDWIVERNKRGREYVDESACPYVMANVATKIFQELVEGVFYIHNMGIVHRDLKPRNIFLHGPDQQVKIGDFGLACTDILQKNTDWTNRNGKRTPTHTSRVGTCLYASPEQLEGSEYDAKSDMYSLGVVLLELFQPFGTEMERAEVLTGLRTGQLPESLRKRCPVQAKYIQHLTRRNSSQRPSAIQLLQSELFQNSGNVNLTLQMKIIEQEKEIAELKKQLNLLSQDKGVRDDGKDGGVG
A value of pIC50 is the negative decimal logarithm of a concentration given in moles per litre.

Query block: Write down pIC50 measured for item Cn1cc(-c2ccc3c(c2F)CCN3C(=O)Cc2cccc(C(F)(F)F)n2)c2c(N)ncnc21
Result block: 7.43

Query block: Entry Cc1cc(C)n(CC(=O)N2CCc3c2ccc(-c2cn(C)c4ncnc(N)c24)c3F)n1 needs its pIC50 filled in; supply it.
Result block: 7.21
